Origin of values: paper PMC4640066

# target of assay: α/β-tubulin (Sus scrofa, UniProt P02550+P02554)
# Construct: α/β-Tubulin was purified from porcine brain
# Sequence (P02554 whole entry): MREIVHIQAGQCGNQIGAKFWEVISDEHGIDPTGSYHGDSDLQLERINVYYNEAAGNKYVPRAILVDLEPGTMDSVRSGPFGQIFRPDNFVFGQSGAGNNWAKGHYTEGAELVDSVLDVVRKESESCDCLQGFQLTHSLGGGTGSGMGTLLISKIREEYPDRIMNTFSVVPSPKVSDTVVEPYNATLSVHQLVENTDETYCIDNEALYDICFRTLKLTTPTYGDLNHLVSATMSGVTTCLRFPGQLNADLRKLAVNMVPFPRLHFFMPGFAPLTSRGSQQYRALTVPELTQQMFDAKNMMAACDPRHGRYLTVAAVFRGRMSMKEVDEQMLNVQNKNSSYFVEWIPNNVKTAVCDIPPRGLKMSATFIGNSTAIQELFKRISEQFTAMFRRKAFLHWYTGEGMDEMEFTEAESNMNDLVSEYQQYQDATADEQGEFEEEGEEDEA
# Sequence (P02550 whole entry): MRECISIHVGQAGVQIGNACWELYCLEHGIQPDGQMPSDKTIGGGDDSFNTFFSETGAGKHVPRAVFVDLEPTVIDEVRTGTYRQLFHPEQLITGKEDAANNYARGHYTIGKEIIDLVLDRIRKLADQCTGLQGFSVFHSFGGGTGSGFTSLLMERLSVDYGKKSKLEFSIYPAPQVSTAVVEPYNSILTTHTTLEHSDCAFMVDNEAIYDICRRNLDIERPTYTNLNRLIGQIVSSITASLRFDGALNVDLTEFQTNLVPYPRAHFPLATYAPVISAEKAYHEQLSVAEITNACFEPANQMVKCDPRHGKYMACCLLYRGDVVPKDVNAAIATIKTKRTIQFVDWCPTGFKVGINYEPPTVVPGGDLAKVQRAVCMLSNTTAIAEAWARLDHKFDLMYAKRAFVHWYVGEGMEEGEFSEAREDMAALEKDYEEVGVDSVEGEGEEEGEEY
# test name: Tryptophan-based drug-binding assay, α/β-tubulin
# test conditions: tryptophan fluorescence decrease; 1 μM protein; mean±s.d., three independent experiments

| compound | Kd |
| --- | --- |
| COc1cc2c(=O)c(-c3cc(OC)c4c(c3OC)OCO4)coc2cc1OCc1ccccc1 | 42.5 µM |
| COc1cc2occ(-c3cc(OC)c4c(c3OC)OCO4)c(=O)c2cc1OC [AG1, glaziovianin A, reference compound] | 51.9 µM |
| COC(=O)Nc1nc2ccc(C(=O)c3cccs3)cc2[nH]1 | 1.8 µM |
| CC(C)(C)c1[nH]cnc1/C=c1\[nH]c(=O)/c(=C/c2ccccc2)[nH]c1=O | 0.5 µM |
